Tested on: Oxysterols receptor LXR-alpha (Homo sapiens, UniProt Q13133)
Sequence (Q13133 whole entry): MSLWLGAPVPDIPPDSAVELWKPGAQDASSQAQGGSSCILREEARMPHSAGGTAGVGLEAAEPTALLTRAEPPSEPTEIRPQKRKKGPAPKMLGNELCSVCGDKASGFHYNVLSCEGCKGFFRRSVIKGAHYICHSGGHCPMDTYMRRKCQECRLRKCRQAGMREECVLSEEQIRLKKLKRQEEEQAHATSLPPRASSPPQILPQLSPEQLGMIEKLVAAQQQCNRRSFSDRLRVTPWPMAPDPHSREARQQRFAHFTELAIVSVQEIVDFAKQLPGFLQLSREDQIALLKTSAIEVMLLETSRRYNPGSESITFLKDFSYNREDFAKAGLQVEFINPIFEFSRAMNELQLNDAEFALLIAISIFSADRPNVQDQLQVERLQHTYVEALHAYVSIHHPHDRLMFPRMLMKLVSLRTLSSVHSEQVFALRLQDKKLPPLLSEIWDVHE
Measurement notes: Agonist activity at human LXR-alpha expressed in African green monkey CV1 cells measured after 18 to 20 hrs by luciferase reporter gene assay
Measured endpoint: EC50 (nM)

(I) CC(C)(O)c1cn(-c2ccc(-c3ccc(CO)c(S(C)(=O)=O)c3)cc2)c(C(C)(C)c2ccccc2Cl)n1
(II) CC(C)(O)c1cn(-c2ccc(-c3cc(F)c(CO)c(S(C)(=O)=O)c3)cc2F)c(C(C)(C)c2c(F)cccc2Cl)n1
I need your help: which of the pair I , II has higher EC50? Let me know the label of the one you choose.
I

(1) CC(O)c1ccc(-c2ccc(-n3cc(C(C)(C)O)nc3C(C)(C)c3ccccc3Cl)cc2)cc1S(C)(=O)=O (configuration not stated)
(2) CC(C)(O)c1cn(-c2ccc(-c3cc(F)c(CO)c(S(C)(=O)=O)c3)cc2Cl)c(C(C)(C)c2c(Cl)cccc2Cl)n1
I need your help: which of the pair 1 , 2 has higher EC50? Let me know the label of the one you choose.
1
(1: 120 nM, 2: 8 nM)

(P) CC(C)(O)c1cn(-c2ccc(-c3cccc(S(C)(=O)=O)c3)cc2)c(C(C)(C)c2ccccc2Cl)n1
(Q) CC(C)(O)c1cn(-c2ccc(-c3cc(F)c(CO)c(S(C)(=O)=O)c3)cc2)c(C(C)(C)c2c(Cl)cccc2Cl)n1
For P and Q , which recorded EC50 is lower? Let me know the label of the one you choose.
Q
(Q: 30 nM, P: 220 nM)
